System: H9-naïve hESCs
Assay: Extended maintenance assay, flow cytometry for naïve-specific CD75 and SUSD2
Type: cell-based, human
Conditions: serum-free media supplemented with XGY, 2.5 μM compound
test_readout: sustaining CD75/SUSD2-positive cells over multiple passages

{"columns": ["molecule", "reading"],
 "data": [
  ["COc1cc(OC)cc(-c2cc3cnc(N)nc3nc2NC(=O)NC(C)(C)C)c1", "robustly sustained"],
  ["Cc1ccc(NC(=O)c2cccc(C(C)(C)C#N)c2)cc1Nc1ccc2ncn(C)c(=O)c2c1", "robustly sustained"],
  ["Cn1nccc1Nc1nccc(-c2ccn([C@H](CO)c3ccc(Cl)c(F)c3)c(=O)c2)n1", "robustly sustained"]
]}

Origin of values: patent US20250382583A1
